Where these numbers come from: PubChem BioAssay (NCI)

Tested on: SK-MEL-28 melanoma
Test: NCI tumour cell line growth inhibition, 48 h
quantity-name: TGI

>>> df
                                   compound        study_target   reading
0          O=C1c2ccccc2-c2nccc3cc(Cl)nc1c23  SK-MEL-28 melanoma   15.8 µM
1  S=C1C(=Nc2ccccc2)N(c2ccccc2)/C(=N\c2ccccn2)N1c1ccccc1  SK-MEL-28 melanoma   30.5 µM
2  CC1CCc2c(sc3ncnc(N/N=C/c4ccc(Cl)c(Cl)c4)c23)C1 (stereo unspecified)  SK-MEL-28 melanoma  > 100 µM

Need TGI for each of these compounds.
1. NC1CCCCC1N.O=C([O-])P(=O)([O-])[O-].[Na+].[Pt+4] (stereo unspecified)
2. COc1ccc(-c2nsc3c2NC(=O)CC3c2ccc3c(c2)OCO3)cc1 (stereo unspecified)
3. COc1ccccc1/C=C1\CCC(CNc2ccc(Cl)cc2)C1=O (stereo unspecified)

Reply |
1. > 100 µM
2. > 100 µM
3. 26.4 µM
